Data origin: ChEMBL document CHEMBL3526122

# Assay: Intrinsic clearance in human intestinal microsomes assessed per mg of protein at 1 to 250 uM after 5 mins in presence of UDPGA
# Format: ADME, Intestine, Microsome
Assay metric: clearance (µL/min/mg)
Express the result in µL/min/mg but write the number alone.

State the recorded clearance for this entry: COc1ccc(C(=O)Nc2cccc(O)c2NC(=O)c2ccc(N3CCCN(C)CC3)cc2)cc1.O=C(O)CCC(=O)O
166

---

# Assay: Drug metabolism in human intestinal microsomes assessed as glucuronidation per mg of protein after 5 mins by Michaelis-Menten plot analysis in presence of UDPGA
# Type: ADME, Intestine, Microsome
Assay metric: Vmax

Need Vmax of COc1ccc(C(=O)Nc2cccc(O)c2NC(=O)c2ccc(N3CCCN(C)CC3)cc2)cc1.O=C(O)CCC(=O)O , thanks.
4.53 nmol/min/mg

---

# System: UDP-glucuronosyltransferase 2B17 (Homo sapiens, UniProt O75795)
# Sequence (O75795 whole entry): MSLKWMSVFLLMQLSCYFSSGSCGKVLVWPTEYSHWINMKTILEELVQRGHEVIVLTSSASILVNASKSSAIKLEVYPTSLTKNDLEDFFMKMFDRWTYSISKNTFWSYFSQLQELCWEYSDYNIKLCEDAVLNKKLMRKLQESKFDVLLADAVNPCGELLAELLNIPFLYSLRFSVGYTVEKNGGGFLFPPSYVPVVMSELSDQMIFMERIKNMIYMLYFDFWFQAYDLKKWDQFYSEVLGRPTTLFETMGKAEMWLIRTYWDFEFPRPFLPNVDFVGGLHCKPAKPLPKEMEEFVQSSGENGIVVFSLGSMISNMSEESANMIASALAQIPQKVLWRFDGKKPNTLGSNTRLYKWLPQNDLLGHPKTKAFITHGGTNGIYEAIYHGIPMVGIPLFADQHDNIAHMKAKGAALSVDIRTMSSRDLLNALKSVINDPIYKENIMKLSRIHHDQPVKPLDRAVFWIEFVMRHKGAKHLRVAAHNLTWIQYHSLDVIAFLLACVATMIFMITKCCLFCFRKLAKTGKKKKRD
# Assay: Activity of human recombinant UGT2B17 expressed in baculovirus-infected insect cells assessed as enzyme-mediated glucuronidation per mg of protein after 10 mins in presence of UDPGA
# Type: ADME
Assay metric: Drug metabolism

Which Drug metabolism is listed for COc1ccc(C(=O)Nc2cccc(O)c2NC(=O)c2ccc(N3CCCN(C)CC3)cc2)cc1.O=C(O)CCC(=O)O ?
< 0.01 nmol/min/mg

---

# Test system: Liver microsome
# Assay: Unbound intrinsic clearance in human liver microsomes assessed per mg of protein after 10 mins in presence of UDPGA and 2% fatty acid free BSA
# Type: ADME
Assay metric: CL free

I would be grateful if you could share the reported CL free for COc1ccc(C(=O)Nc2cccc(O)c2NC(=O)c2ccc(N3CCCN(C)CC3)cc2)cc1.O=C(O)CCC(=O)O .
178 µL/min/mg

---

# System: UDP-glucuronosyltransferase 1A9 (Homo sapiens)
# Sequence (O60656 whole entry): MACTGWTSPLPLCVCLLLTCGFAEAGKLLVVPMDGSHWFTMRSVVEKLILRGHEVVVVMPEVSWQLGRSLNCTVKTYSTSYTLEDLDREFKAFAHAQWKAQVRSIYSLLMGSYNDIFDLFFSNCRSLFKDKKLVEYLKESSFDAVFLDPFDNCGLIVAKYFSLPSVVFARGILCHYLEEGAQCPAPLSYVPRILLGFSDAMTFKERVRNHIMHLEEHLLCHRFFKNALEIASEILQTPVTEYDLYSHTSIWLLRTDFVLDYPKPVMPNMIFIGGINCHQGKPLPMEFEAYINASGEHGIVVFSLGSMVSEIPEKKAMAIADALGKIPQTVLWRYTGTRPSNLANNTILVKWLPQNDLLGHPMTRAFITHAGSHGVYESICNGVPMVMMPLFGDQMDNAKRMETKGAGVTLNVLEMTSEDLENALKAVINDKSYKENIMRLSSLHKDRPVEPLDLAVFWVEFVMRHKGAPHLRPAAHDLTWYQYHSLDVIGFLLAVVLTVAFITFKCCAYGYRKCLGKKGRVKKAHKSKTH
# Assay: Activity of human recombinant UGT1A9 expressed in baculovirus-infected insect cells assessed as unbound intrinsic clearance for enzyme-mediated glucuronidation per mg of protein after 5 mins by Michaelis-Menten plot analysis in presence of UDPGA and absence of fatty acid free BSA
# Format: ADME
Assay metric: CL free (µL/min/mg)
Write the number in µL/min/mg without appending the unit.

Recorded CL free of COc1ccc(C(=O)Nc2cccc(O)c2NC(=O)c2ccc(N3CCCN(C)CC3)cc2)cc1.O=C(O)CCC(=O)O , please.
138

---

# System: Liver microsome
# Assay: Drug metabolism in human liver microsomes assessed as glucuronidation per mg of protein after 10 mins by Michaelis-Menten plot analysis in presence of UDPGA and 0.1% fatty acid free BSA
# Type: ADME
Assay metric: Vmax (nmol/min/mg)
All answers are understood in nmol/min/mg, so give the number only.

Which Vmax is reported with Liver microsome for this entry: COc1ccc(C(=O)Nc2cccc(O)c2NC(=O)c2ccc(N3CCCN(C)CC3)cc2)cc1.O=C(O)CCC(=O)O ?
3.25

---

# Assay: Drug metabolism in human intestinal microsomes assessed as glucuronidation after 10 mins by Michaelis-Menten plot
# Format: ADME, Intestine, Microsome
Assay metric: Km at 10 min (µM)
Your answer should be a plain number; it is taken to be in µM.

Looking for the measured Km at 10 min of COc1ccc(C(=O)Nc2cccc(O)c2NC(=O)c2ccc(N3CCCN(C)CC3)cc2)cc1.O=C(O)CCC(=O)O , can you help?
27.3

---

# Assay: Fraction unbound in human liver microsomes at 1 to 250 uM after 10 mins by ultrafiltration method in presence of 2% fatty acid free BSA
# Format: ADME
Assay metric: fraction unbound at 10 min, up to 250 µM

Requested field: fraction unbound at 10 min, up to 250 µM. Item: COc1ccc(C(=O)Nc2cccc(O)c2NC(=O)c2ccc(N3CCCN(C)CC3)cc2)cc1.O=C(O)CCC(=O)O
0.251
